Reference for the values: paper PMC4336329

System name: human ether-à-go-go-related gene (hERG) potassium channel (human);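 further: peak tail current of the secondary pulse compared with the same well before compound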
Sequence (Q12809 whole entry, looked up): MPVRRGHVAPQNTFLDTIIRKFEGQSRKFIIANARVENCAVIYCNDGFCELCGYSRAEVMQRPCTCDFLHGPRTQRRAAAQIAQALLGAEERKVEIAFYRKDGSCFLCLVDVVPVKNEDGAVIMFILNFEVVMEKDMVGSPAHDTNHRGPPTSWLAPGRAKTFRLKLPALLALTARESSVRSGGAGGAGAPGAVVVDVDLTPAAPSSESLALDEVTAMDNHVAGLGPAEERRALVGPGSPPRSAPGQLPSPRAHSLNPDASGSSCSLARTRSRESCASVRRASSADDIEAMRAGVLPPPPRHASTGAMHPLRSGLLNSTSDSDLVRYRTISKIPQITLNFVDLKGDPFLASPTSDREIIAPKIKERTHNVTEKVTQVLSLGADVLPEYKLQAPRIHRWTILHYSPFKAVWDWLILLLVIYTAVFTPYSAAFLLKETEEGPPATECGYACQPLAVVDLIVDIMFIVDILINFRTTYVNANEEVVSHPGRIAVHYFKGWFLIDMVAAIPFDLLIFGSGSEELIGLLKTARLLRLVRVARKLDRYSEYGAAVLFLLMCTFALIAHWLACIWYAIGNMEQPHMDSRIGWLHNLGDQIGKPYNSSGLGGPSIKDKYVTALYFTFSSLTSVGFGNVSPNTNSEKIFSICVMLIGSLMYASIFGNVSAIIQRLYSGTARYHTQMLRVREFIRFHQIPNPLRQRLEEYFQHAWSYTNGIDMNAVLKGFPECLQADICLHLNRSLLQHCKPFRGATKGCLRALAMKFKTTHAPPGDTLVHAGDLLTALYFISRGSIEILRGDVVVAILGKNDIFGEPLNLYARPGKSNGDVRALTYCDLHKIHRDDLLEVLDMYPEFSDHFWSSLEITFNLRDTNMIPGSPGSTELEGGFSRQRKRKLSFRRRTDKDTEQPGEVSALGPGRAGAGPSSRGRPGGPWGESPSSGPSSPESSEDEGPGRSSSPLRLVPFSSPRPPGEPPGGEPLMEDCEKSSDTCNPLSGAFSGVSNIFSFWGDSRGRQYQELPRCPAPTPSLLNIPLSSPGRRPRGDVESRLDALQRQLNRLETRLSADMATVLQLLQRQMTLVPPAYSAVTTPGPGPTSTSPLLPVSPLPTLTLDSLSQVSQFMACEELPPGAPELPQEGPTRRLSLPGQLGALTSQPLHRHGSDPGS
Assay method text: primary screen, population patch clamp on CHO cells stably expressing hERG; higher = less effect of the substance
About 14,000 (4.5%) of roughly 310,000 compounds showed an effect of 50% or more. The effect is printed as a negative number. This excerpt belongs to a sample that is enriched for strong results.
Observed property: hERG current change (%, negative = inhibition) at 10uM (%)
Field: numeric (%). Do not append units.

response.value for CC(Nc1cc(C)cc(C)c1)=[N+](C)CCNS(=O)(=O)c1ccc(Cl)cc1.[I-] (field: hERG current change (%, negative = inhibition) at 10uM) = -48.5

response.value for COC(=O)[C@H](CC(C)C)NC(=O)N1CCC(C)CC1 (field: hERG current change (%, negative = inhibition) at 10uM) = 16.7

response.value for COc1ccc(Cc2nc3ccc(C(=O)NCCSC)cc3o2)cc1 (field: hERG current change (%, negative = inhibition) at 10uM) = 6.36

response.value for CCOc1ccc(NC(=O)Cn2cc(C(=O)CC)c3ccccc32)cc1 (field: hERG current change (%, negative = inhibition) at 10uM) = 14.7

response.value for COc1ccccc1NS(=O)(=O)c1cccc(C(=O)N/N=C/c2ccc(N3CCOCC3)cc2)c1 (field: hERG current change (%, negative = inhibition) at 10uM) = -8.32

====

System name: human ether-à-go-go-related gene (hERG) potassium channel (human);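 further: peak tail current of the secondary pulse compared with the same well before compound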
Assay method text: primary screen, population patch clamp on CHO cells stably expressing hERG; higher = less effect of the substance
Screen size: about 310,000 compounds; about 14,000 (4.5%) showed an effect of 50% or more. Effects have a minus sign here. The entries come from a sample that favours strong results as a whole.
Consider the following compounds; for each one, report its hERG current change (%, negative = inhibition) at 10uM.
Field: numeric (%). Do not append units.

Value sought: hERG current change (%, negative = inhibition) at 10uM, system human ether-à-go-go-related gene (hERG) potassium channel (human), item OCCC1CN(Cc2nc3ccccc3s2)CCN1C1CCCC1 (stereo not shown) . Result: -48.9

Value sought: hERG current change (%, negative = inhibition) at 10uM, system human ether-à-go-go-related gene (hERG) potassium channel (human), item COc1ccc(-c2csc(N3CCC(c4ccccc4)CC3)n2)cc1 . Result: 23.2

Value sought: hERG current change (%, negative = inhibition) at 10uM, system human ether-à-go-go-related gene (hERG) potassium channel (human), item CC(C)N1CCC(N2CCN(Cc3nc4ccccc4s3)CC2CCO)CC1 (stereo not shown) . Result: -33.4

Value sought: hERG current change (%, negative = inhibition) at 10uM, system human ether-à-go-go-related gene (hERG) potassium channel (human), item Cc1ccc(Oc2nn[nH]n2)cc1 . Result: 0.395

Value sought: hERG current change (%, negative = inhibition) at 10uM, system human ether-à-go-go-related gene (hERG) potassium channel (human), item COc1ccc(-n2nnc3c(SCC(=O)Nc4ccccc4F)ncnc32)cc1 . Result: 18.9

Value sought: hERG current change (%, negative = inhibition) at 10uM, system human ether-à-go-go-related gene (hERG) potassium channel (human), item CCOc1ccc2nc(N3CCC(C(=O)N4CCN(C(=O)c5ccco5)CC4)CC3)sc2c1 . Result: -81.7

Value sought: hERG current change (%, negative = inhibition) at 10uM, system human ether-à-go-go-related gene (hERG) potassium channel (human), item Cc1nc(SCC(=O)NCc2ccco2)nc(C)c1C . Result: -6.76

Value sought: hERG current change (%, negative = inhibition) at 10uM, system human ether-à-go-go-related gene (hERG) potassium channel (human), item Cc1ccc(NC(=Nc2ccc(Br)cc2)N2CCOCC2)cc1C . Result: -63.8

Value sought: hERG current change (%, negative = inhibition) at 10uM, system human ether-à-go-go-related gene (hERG) potassium channel (human), item CC(C)NC(=O)C1CCN(C2CCN(Cc3ccc4cccc(F)c4n3)CC2)CC1 . Result: -38.6

Value sought: hERG current change (%, negative = inhibition) at 10uM, system human ether-à-go-go-related gene (hERG) potassium channel (human), item Cc1ccc(NC(=S)NCCN2CCOCC2)cc1C . Result: -5.31

Value sought: hERG current change (%, negative = inhibition) at 10uM, system human ether-à-go-go-related gene (hERG) potassium channel (human), item Cc1cc2occ(CC(=O)N(C)CC(=O)Nc3ccc(F)cc3)c2cc1C . Result: -9.51

Value sought: hERG current change (%, negative = inhibition) at 10uM, system human ether-à-go-go-related gene (hERG) potassium channel (human), item CCOc1ccc2nc(N3CCC(C(=O)N4CCN(C5CCCCC5)CC4)CC3)sc2c1 . Result: -46.1

Value sought: hERG current change (%, negative = inhibition) at 10uM, system human ether-à-go-go-related gene (hERG) potassium channel (human), item CCOC(=O)Nc1ccc2nc(N3CCCCCC3)sc2c1 . Result: -50.6

Value sought: hERG current change (%, negative = inhibition) at 10uM, system human ether-à-go-go-related gene (hERG) potassium channel (human), item CC(C)NC(=O)C1CCN(C2CCN(Cc3nc4ccccc4s3)CC2)CC1 . Result: -65.2

Value sought: hERG current change (%, negative = inhibition) at 10uM, system human ether-à-go-go-related gene (hERG) potassium channel (human), item CC(C)N1CC(C(=O)Nc2ccc(Br)c(Cl)c2)CC1=O (stereo not shown) . Result: -2.34

Value sought: hERG current change (%, negative = inhibition) at 10uM, system human ether-à-go-go-related gene (hERG) potassium channel (human), item Cc1cc(C)n(C(=O)C2CCCN2S(=O)(=O)c2ccc(Cl)cc2)n1 (stereo not shown) . Result: -7.48

Value sought: hERG current change (%, negative = inhibition) at 10uM, system human ether-à-go-go-related gene (hERG) potassium channel (human), item Cc1cc(C)c(C#N)c(N2CCN(C(=O)C3COc4ccccc4O3)CC2)n1 (stereo not shown) . Result: -75.4

Value sought: hERG current change (%, negative = inhibition) at 10uM, system human ether-à-go-go-related gene (hERG) potassium channel (human), item O=C(CCc1ccccc1)N1CCCC1 . Result: 8.96

Value sought: hERG current change (%, negative = inhibition) at 10uM, system human ether-à-go-go-related gene (hERG) potassium channel (human), item OCCC1CN(Cc2nc3ccccc3s2)CCN1C1CCCCC1 (stereo not shown) . Result: -60

Value sought: hERG current change (%, negative = inhibition) at 10uM, system human ether-à-go-go-related gene (hERG) potassium channel (human), item CC(C)NC(=O)C1CCN(C2CCN(Cc3nc(C(C)C)cs3)CC2)CC1 . Result: -49.5

Value sought: hERG current change (%, negative = inhibition) at 10uM, system human ether-à-go-go-related gene (hERG) potassium channel (human), item Cc1cccc2sc(N3CCN(C(=O)C4COc5ccccc5O4)CC3)nc12 (stereo not shown) . Result: -31.3

Value sought: hERG current change (%, negative = inhibition) at 10uM, system human ether-à-go-go-related gene (hERG) potassium channel (human), item Cc1ccc(NC(=O)CN2CCOCC2)cc1C . Result: 14.3
